FYI, the data here is from PubChem BioAssay.

# Procedure Text: small-molecule microarray binders of probe aXIP, primary screen, biochemical, NeuroSMM set, 635/667 nm fluorescence (AID 1119);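 also: probe is the protein aXip251-270 applied at 1 µg/mL to compound-printed slides; binding of probe to printed compounds measured as 667 nm fluorescence plus signal to noise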
# Condition Summary: higher = more signal, called active from +8 up or from −8 down
We use -0.2 as the dividing line for composite Z-score: on or above the line is criterion met, below is criterion not met.

COC(=O)[C@@H]1CC[C@H](C)[C@@H](c2ccc(Br)cc2)N1C[C@H](O)CN=[N+]=[N-]    criterion met

Could you now consider this next compound?
Query :: Assess whether reported composite Z-score for O=C1C[C@@H](O)[C@@H](O)[C@@H]2[C@@H]3C(=O)N(C4CCCCC4)C(=O)[C@@H]3CC[C@@H]12 sits at -0.2 or higher.
Result :: criterion not met
